- Assayed System: human PPAR α (Homo sapiens, UniProt Q07869)
- Construct: expressed in transfected cells; host or cells: HepG2 (ATCC HB-8065) or 293T cells (ATCC CRL-1573)
- Sequence (Q07869 239-466 limits assumed): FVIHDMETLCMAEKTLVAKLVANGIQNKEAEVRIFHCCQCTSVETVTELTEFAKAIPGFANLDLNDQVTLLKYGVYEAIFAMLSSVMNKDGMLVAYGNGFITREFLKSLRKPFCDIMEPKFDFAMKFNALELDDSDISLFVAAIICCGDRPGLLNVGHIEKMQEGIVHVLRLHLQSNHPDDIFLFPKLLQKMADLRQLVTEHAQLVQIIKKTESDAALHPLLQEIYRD
- Protocol: Exogeneous PPAR α agonist assay (GAL4 DNA binding domain/PPAR α ligand binding domain, luciferase) in HepG2 cells
- Format: cell-based
- Protocol Conditions: 25 μM compound, 48 hours, luciferase activity increase relative to the control
# binarize Activity at 25 μM Step 1 HepG2 cell: threshold 40 inclusive, high side 1.0, low side 0.0

Compound	Assayed System	Class Label
Cc1ccc(-c2nc(COc3cccc(C(C)N(CC(=O)O)S(=O)(=O)N(C)C(C)C)c3)c(C)o2)cc1 (stereo not shown)	human PPAR α (Homo sapiens, UniProt Q07869)	1.0
Cc1oc(-c2ccc(C(F)(F)F)cc2)nc1CCOc1cccc(CN(CC(=O)O)S(=O)(=O)N(C)C(C)C)c1	human PPAR α (Homo sapiens, UniProt Q07869)	0.0
Cc1ccc(-c2nc(CCOc3ccc(CN(CC(=O)O)S(=O)(=O)N(C)C(C)C)cc3)c(C)o2)cc1	human PPAR α (Homo sapiens, UniProt Q07869)	1.0
Cc1ccc(-c2nc(COc3cccc(CN([C@H](C(=O)O)C(C)C)S(=O)(=O)N(C)C)c3)c(C)o2)cc1	human PPAR α (Homo sapiens, UniProt Q07869)	0.0
Cc1ccc(-c2nc(COc3cccc(C(C)N(CC(=O)O)S(=O)(=O)N4CCCC4)c3)c(C)o2)cc1 (stereo not shown)	human PPAR α (Homo sapiens, UniProt Q07869)	1.0
Cc1oc(-c2ccc(C(F)(F)F)cc2)nc1COc1cccc(CN(CC(=O)O)S(=O)(=O)N2CCCCC2)c1	human PPAR α (Homo sapiens, UniProt Q07869)	1.0

====

Activity at 25 μM Step 1 293T cell: recorded values
- Assayed System: human PPAR α (Homo sapiens)
- Construct: expressed in transfected cells; host or cells: HepG2 (ATCC HB-8065) or 293T cells (ATCC CRL-1573)
- Protocol: Exogeneous PPAR α agonist assay (GAL4 DNA binding domain/PPAR α ligand binding domain, luciferase) in 293T cells
- Type: cell-based
- Parameters: scale not given here
- Protocol Conditions: 25 μM compound, 48 hours, luciferase activity increase relative to the control

Molecule	Activity at 25 μM Step 1 293T cell
C=CCN(C)S(=O)(=O)N(CC(=O)O)Cc1cccc(OCCc2nc(-c3ccc(C(F)(F)F)cc3)oc2C)c1	2
Cc1ccc(-c2nc(CCOc3cccc(CN(CC(=O)O)S(=O)(=O)N4CCN(C)CC4)c3)c(C)o2)cc1	1
Cc1oc(-c2ccc(C(F)(F)F)cc2)nc1COc1cccc(CN(CC(=O)O)S(=O)(=O)N2CCN(C)CC2)c1	1
Cc1oc(-c2ccccc2)nc1CCOc1cccc(CN(CC(=O)O)S(=O)(=O)N2CCCc3ccccc32)c1	2
Cc1ccc(-c2nc(COc3cccc(CN([C@H](C(=O)O)C(C)C)S(=O)(=O)N(C)C)c3)c(C)o2)cc1	3
Cc1ccc(-c2nc(COc3cccc(CN(CC(=O)O)S(=O)(=O)N(C)c4ccccc4)c3)c(C)o2)cc1	2
Cc1ccc(-c2nc(COc3cccc(C(C)N(CC(=O)O)S(=O)(=O)N(C)C(C)C)c3)c(C)o2)cc1 (stereo not drawn)	3
Cc1oc(-c2ccc(C(F)(F)F)cc2)nc1CCOc1ccc(CN(CC(=O)O)S(=O)(=O)N(C)C)cc1	2
Cc1oc(-c2ccccc2)nc1COc1ccc(CN(CC(=O)O)S(=O)(=O)N(C)c2ccc(Cl)cc2)cc1	3
Cc1nc(-c2ccc(C(F)(F)F)cc2)oc1COc1cccc(CN(CC(=O)O)S(=O)(=O)N(C)C)c1	2
Cc1ccc(-c2nc(COc3ccc(CN(CC(=O)O)S(=O)(=O)N4CCN(C)CC4)cc3)c(C)o2)cc1	2
Cc1ccc(-c2nc(COc3ccc(CN(CC(=O)O)S(=O)(=O)N(C)c4ccc(Cl)cc4)cc3)c(C)o2)cc1	2
Cc1ccc(-c2nc(CCOc3ccc(CN(CC(=O)O)S(=O)(=O)N(C)c4ccc(Cl)cc4)cc3)c(C)o2)cc1	2
Cc1oc(-c2ccccc2)nc1COc1cccc(CN(CC(=O)O)S(=O)(=O)N(C)C)c1	2
Cc1oc(-c2ccccc2)nc1COc1ccc(CN(CC(=O)O)S(=O)(=O)N(C)C)cc1	2

====

Catalogue of LDL (LDL-cholesterol) readings, one per entry.
- System: ob/ob mice
- Protocol: Anti-obesity test: lipid metabolism-related materials and glucose in blood of ob/ob mice
- Assay type: in vivo
- Protocol Conditions: 100 mg/kg oral twice a day, 28 days, fasted 16 hours, plasma
Observation Type: LDL (LDL-cholesterol) (mg/dL)

Molecule	Observed Value
Cc1oc(-c2ccc(C(F)(F)F)cc2)nc1CCOc1cccc(CN(CC(=O)O)S(=O)(=O)N(C)C)c1	33.0
Cc1oc(-c2ccc(C(F)(F)F)cc2)nc1COc1cccc(CN(CC(=O)O)S(=O)(=O)N(C)C)c1	24.3
Cc1ccc(-c2nc(CCOc3cccc(CN(CC(=O)O)S(=O)(=O)N(C)C)c3)c(C)o2)cc1	37.8
CC(C)OC(=O)C(C)(C)Oc1ccc(C(=O)c2ccc(Cl)cc2)cc1 [fenofibrate, reference compound]	27.0

====

- Assayed System: human PPAR α (Homo sapiens, UniProt Q07869)
- Construct: expressed in transfected cells; host or cells: HepG2 (ATCC HB-8065) or 293T cells (ATCC CRL-1573)
- Protocol: Exogeneous PPAR α agonist assay (GAL4 DNA binding domain/PPAR α ligand binding domain, luciferase) in 293T cells
- Assay type: cell-based
- Parameters: scale not given here
- Protocol Conditions: 25 μM compound, 48 hours, luciferase activity increase relative to the control
Observation Type: Activity at 25 μM Step 1 293T cell

Compound	Observation Type	Observed Value
Cc1nc(-c2ccc(C(F)(F)F)cc2)oc1COc1cccc(CN(CC(=O)O)S(=O)(=O)N2CCCC2)c1 [Example 26]	Activity at 25 μM Step 1 293T cell	2
Cc1ccc(-c2nc(CCOc3cccc(CN(CC(=O)O)S(=O)(=O)N4CCOCC4)c3)c(C)o2)cc1 [Example 86]	Activity at 25 μM Step 1 293T cell	2
Cc1ccc(-c2nc(CCOc3cccc(CN(CC(=O)O)S(=O)(=O)N(C)C(C)C)c3)c(C)o2)cc1 [Example 64]	Activity at 25 μM Step 1 293T cell	2
Cc1oc(-c2ccc(C(F)(F)F)cc2)nc1COc1ccc(CN(CC(=O)O)S(=O)(=O)N(C)c2ccccc2)cc1 [Example 47]	Activity at 25 μM Step 1 293T cell	2
Cc1oc(-c2cccs2)nc1CCOc1ccc(CN(CC(=O)O)S(=O)(=O)N(C)c2ccc(Cl)cc2)cc1 [Example 115]	Activity at 25 μM Step 1 293T cell	2
CCN(c1cccc(C)c1)S(=O)(=O)N(CC(=O)O)Cc1ccc(OCCc2nc(-c3ccc(C)cc3)oc2C)cc1 [Example 111]	Activity at 25 μM Step 1 293T cell	5
Cc1ccc(-c2nc(COc3cccc(CN([C@H](C(=O)O)C(C)C)S(N)(=O)=O)c3)c(C)o2)cc1 [Example 2]	Activity at 25 μM Step 1 293T cell	6
Cc1oc(-c2cccs2)nc1COc1ccc(CN(CC(=O)O)S(=O)(=O)N(C)c2ccccc2)cc1 [Example 48]	Activity at 25 μM Step 1 293T cell	2
CCN(CC)S(=O)(=O)N(CC(=O)O)C(C)c1cccc(OCc2nc(-c3ccc(C)cc3)oc2C)c1 (centres unmarked) [Example 128]	Activity at 25 μM Step 1 293T cell	2
Cc1oc(-c2ccc(C(F)(F)F)cc2)nc1COc1cccc(CN(CC(=O)O)S(=O)(=O)N(C)C)c1 [Example 5]	Activity at 25 μM Step 1 293T cell	2
Cc1ccc(-c2nc(COc3ccc(CN(CC(=O)O)S(=O)(=O)N4CCCC4)cc3)c(C)o2)cc1 [Example 42]	Activity at 25 μM Step 1 293T cell	3
CN(c1ccc(Cl)cc1)S(=O)(=O)N(CC(=O)O)Cc1ccc(OCCc2coc(-c3ccccc3)n2)cc1 [Example 133]	Activity at 25 μM Step 1 293T cell	4
Cc1nc(-c2ccc(C(F)(F)F)cc2)oc1COc1cccc(CN(CC(=O)O)S(=O)(=O)N2CCOCC2)c1 [Example 29]	Activity at 25 μM Step 1 293T cell	2
Cc1oc(-c2ccccc2)nc1COc1cccc(CN(CC(=O)O)S(=O)(=O)N2CCCc3ccccc32)c1 [Example 34]	Activity at 25 μM Step 1 293T cell	2
CCN(c1cccc(C)c1)S(=O)(=O)N(CC(=O)O)Cc1cccc(OCCc2nc(-c3ccc(C(F)(F)F)cc3)oc2C)c1 [Example 80]	Activity at 25 μM Step 1 293T cell	5
Cc1ccc(-c2nc(CCOc3ccc(CN(CC(=O)O)S(=O)(=O)NC(C)(C)C)cc3)c(C)o2)cc1 [Example 100]	Activity at 25 μM Step 1 293T cell	2
Cc1oc(-c2ccccc2)nc1CCOc1ccc(CN(CC(=O)O)S(=O)(=O)N(C)c2ccc(Cl)cc2)cc1 [Example 109]	Activity at 25 μM Step 1 293T cell	3
COc1ccc(N(C)S(=O)(=O)N(CC(=O)O)Cc2cccc(OCc3nc(-c4ccc(C(F)(F)F)cc4)oc3C)c2)cc1 [Example 22]	Activity at 25 μM Step 1 293T cell	4
CCN(CC)S(=O)(=O)N(CC(=O)O)Cc1cccc(OCc2nc(-c3ccc(C(F)(F)F)cc3)oc2C)c1 [Example 7]	Activity at 25 μM Step 1 293T cell	3
CN(C)S(=O)(=O)N(CC(=O)O)Cc1cccc(OCCc2coc(-c3ccccc3)n2)c1 [Example 131]	Activity at 25 μM Step 1 293T cell	5
Cc1oc(-c2cccs2)nc1CCOc1cccc(CN(CC(=O)O)S(=O)(=O)N(C)C)c1 [Example 72]	Activity at 25 μM Step 1 293T cell	2
Cc1oc(-c2cccs2)nc1CCOc1ccc(CN(CC(=O)O)S(=O)(=O)N(C)C)cc1 [Example 104]	Activity at 25 μM Step 1 293T cell	1
Cc1oc(-c2ccc(C(F)(F)F)cc2)nc1CCOc1ccc(CN(CC(=O)O)S(=O)(=O)N2CCc3ccccc32)cc1 [Example 118]	Activity at 25 μM Step 1 293T cell	2
CCN(CC)S(=O)(=O)N(CC(=O)O)Cc1ccc(OCCc2nc(-c3ccc(C)cc3)oc2C)cc1 [Example 101]	Activity at 25 μM Step 1 293T cell	4
Cc1ccc(-c2nc(CCOc3ccc(CN(CC(=O)O)S(=O)(=O)N(C)c4cccc(F)c4)cc3)c(C)o2)cc1 [Example 113]	Activity at 25 μM Step 1 293T cell	4
Cc1oc(-c2ccc(C(F)(F)F)cc2)nc1CCOc1ccc(CN(CC(=O)O)S(=O)(=O)N2CCCc3ccccc32)cc1 [Example 122]	Activity at 25 μM Step 1 293T cell	2
Cc1oc(-c2cccs2)nc1CCOc1ccc(CN(CC(=O)O)S(=O)(=O)N(C)c2ccccc2)cc1 [Example 108]	Activity at 25 μM Step 1 293T cell	2
Cc1ccc(-c2nc(COc3cccc(CN([C@@H](C)C(=O)O)S(=O)(=O)N(C)C)c3)c(C)o2)cc1 [Example 124]	Activity at 25 μM Step 1 293T cell	5
Cc1ccc(-c2nc(CCOc3cccc(CN(CC(=O)O)S(=O)(=O)N(C)C)c3)c(C)o2)cc1 [Example 62]	Activity at 25 μM Step 1 293T cell	2
